pIC50: −log10 of the molar value.
The following are reported pIC50 results, target or system BTK (Homo sapiens (Human)).

GET pIC50 | system: BTK (Homo sapiens (Human)) | item: C=CC(=O)N1CC[C@@H](Oc2cnccc2-c2ccc(CNC(=O)c3cn(C(C)(C)C)nn3)c(C)c2)C1 (single isomer, unassigned)
< 8.00

GET pIC50 | system: BTK (Homo sapiens (Human)) | item: "C=CC(=O)N(C)CCOc1c(N)ncnc1-c1ccc(CNC(=O)c2nnc(C(C)(C)C)o2)c(C)c1"
> 9.00

GET pIC50 | system: BTK (Homo sapiens (Human)) | item: "C=CC(=O)N1CC[C@H]1COc1cnccc1-c1ccc(CNC(=O)c2ccc(C(F)(F)F)nc2)c(C)c1"
< 8.00

GET pIC50 | system: BTK (Homo sapiens (Human)) | item: "C=CC(=O)N(C)CCOc1cnccc1-c1ccc(CNC(=O)c2noc(C(C)(C)C)n2)c(C(F)(F)F)c1"
> 9.00

GET pIC50 | system: BTK (Homo sapiens (Human)) | item: "Cc1cc(-c2ccncc2OC2CCN(C(=O)/C=C/CN(C)C)CC2)ccc1CNC(=O)c1cn(C(C)(C)C)nn1"
> 9.00

GET pIC50 | system: BTK (Homo sapiens (Human)) | item: "C=CC(=O)N1CCCC[C@@H]1C(=O)Nc1cnccc1-c1ccc(CNC(=O)c2noc(C(C)(C)C)n2)c(C)c1"
> 9.00

GET pIC50 | system: BTK (Homo sapiens (Human)) | item: "C=CC(=O)N(C)CCOc1c(N)ncnc1-c1ccc(CNC(=O)c2cn(C(C)(C)C)nn2)c(C)c1"
> 9.00

GET pIC50 | system: BTK (Homo sapiens (Human)) | item: "C=CC(=O)NCC(=O)Nc1cncnc1-c1ccc(CNC(=O)c2cn(C(C)(C)C)nn2)c(C)c1"
8.00 to 9.00

GET pIC50 | system: BTK (Homo sapiens (Human)) | item: "C=CC(=O)N(C)CCOc1cnccc1-c1ccc(CNC(=O)c2cc(C(C)(C)C)on2)c(C)c1"
> 9.00

GET pIC50 | system: BTK (Homo sapiens (Human)) | item: C#CC(=O)N1CCCC1COc1cnccc1-c1ccc(CNC(=O)c2cn(C(C)(C)C)nn2)c(C)c1F (stereo not drawn)
8.00 to 9.00

GET pIC50 | system: BTK (Homo sapiens (Human)) | item: "C=CC(=O)N1CCC(Oc2cnccc2-c2ccc(CNC(=O)c3cn(C(C)(C)C)nn3)c(C)c2)CC1"
> 9.00

GET pIC50 | system: BTK (Homo sapiens (Human)) | item: C=CC(=O)N1CCCC1COc1cnccc1-c1ccc(CNC(=O)c2cn(C(C)(C)C)nn2)c(C)c1F (stereo not drawn)
8.00 to 9.00

GET pIC50 | system: BTK (Homo sapiens (Human)) | item: "C=CC(=O)N(C)CCOc1c(N)ncnc1-c1ccc(CN2CCc3c(cnn3C(C)(C)C)C2=O)c(C)c1"
> 9.00

GET pIC50 | system: BTK (Homo sapiens (Human)) | item: "C=CC(=O)N(C)CCOc1c(N)ncnc1-c1ccc(CN2Cc3cc(C4CC4)sc3C2=O)c(C)c1"
> 9.00

GET pIC50 | system: BTK (Homo sapiens (Human)) | item: "C=CC(=O)N(C)CCOc1cnccc1-c1ccc(CN2CCc3c(cnn3C(C)(C)C)C2=O)c(C)c1"
> 9.00

----------
I'd appreciate it if you could supply IC50 values for the items below.

GET IC50 | system: BTK (Homo sapiens (Human), UniProt Q06187) | item: C#CC(=O)N1CCC(Oc2cnccc2-c2ccc(CNC(=O)c3cn(C(C)(C)C)nn3)c(C)c2)C1 (stereo not drawn)
1 to 10 nM

GET IC50 | system: BTK (Homo sapiens (Human), UniProt Q06187) | item: "C=CC(=O)N(C)CCOc1c(N)ncnc1-c1ccc(CNC(=O)c2cnn(C(C)(C)C)c2)c(C)c1"
< 1 nM

GET IC50 | system: BTK (Homo sapiens (Human), UniProt Q06187) | item: "Cc1cc(-c2ccncc2OC2CN(C(=O)/C=C/CN(C)C)C2)ccc1CNC(=O)c1cn(C(C)(C)C)nn1"
> 10 nM

GET IC50 | system: BTK (Homo sapiens (Human), UniProt Q06187) | item: "C=CC(=O)N(C)CCOc1c(N)ncnc1-c1ccc(CNC(=O)c2nc(C(C)(C)C)no2)c(C)c1"
< 1 nM

GET IC50 | system: BTK (Homo sapiens (Human), UniProt Q06187) | item: "C=CC(=O)N(C)CC(=O)Nc1cncnc1-c1ccc(CNC(=O)c2cn(C(C)(C)C)nn2)c(C)c1"
< 1 nM

GET IC50 | system: BTK (Homo sapiens (Human), UniProt Q06187) | item: "C#CC(=O)N1CCC(Oc2cnccc2-c2ccc(CNC(=O)c3cn(C(C)(C)C)nn3)c(C)c2)CC1"
< 1 nM

Source listed as patent US12570631B2.
